Reference source: ChEMBL document CHEMBL1134923

Test system: Enterococcus faecium
Experiment: Minimum Inhibitory Concentration against Enterococcus faecium SR-7917 (VRE) was determined
Assay type: functional
Value kind: MIC (µg/mL)
Write the answer as a number in µg/mL, unit excluded.

- Compound: "CCCCCCCOc1ccc(CN[C@@]2(C)C[C@H](O[C@@H]3c4ccc(c(Cl)c4)Oc4cc5cc(c4O[C@@H]4O[C@H](CO)[C@@H](O)[C@H](O)[C@H]4O)Oc4ccc(cc4Cl)[C@@H](O)[C@@H](NC(=O)[C@@H](CC(C)C)NC)C(=O)N[C@@H](CC(N)=O)C(=O)N[C@H]5C(=O)NC4C(=O)NC3C(=O)N[C@@H](C(=O)O)c3cc(O)cc(O)c3-c3cc4ccc3O)O[C@@H](C)[C@@H]2O)cc1 (some centres not stated)"
  MIC, µg/mL: 12.5

With those in mind, consider the next compound.
Give the observed MIC of CN[C@H](CC(C)C)C(=O)N[C@H]1C(=O)N[C@@H](CC(N)=O)C(=O)N[C@H]2C(=O)NC3C(=O)NC(C(=O)N[C@@H](C(=O)O)c4cc(O)cc(O)c4-c4cc3ccc4O)[C@H](O[C@H]3C[C@](C)(NCc4ccc(/C=C/c5ccc(Cl)cc5)cc4)[C@@H](O)[C@H](C)O3)c3ccc(c(Cl)c3)Oc3cc2cc(c3O[C@@H]2O[C@H](CO)[C@@H](O)[C@H](O)[C@H]2O)Oc2ccc(cc2Cl)[C@H]1O (some centres not stated) for Enterococcus faecium.
6.25

----------
Reported MIC values for a set of molecules
Tested on: Enterococcus faecium
Assay: Minimum Inhibitory Concentration against Enterococcus faecium SR-7917 (VRE) was determined
Assay type: functional

- Molecule: "CN[C@H](CC(C)C)C(=O)N[C@H]1C(=O)N[C@@H](CC(N)=O)C(=O)N[C@H]2C(=O)NC3C(=O)NC(C(=O)N[C@@H](C(=O)O)c4cc(O)cc(O)c4-c4cc3ccc4O)[C@H](O[C@H]3C[C@](C)(NCc4ccc(C#Cc5ccc(Cl)cc5)cc4)[C@@H](O)[C@H](C)O3)c3ccc(c(Cl)c3)Oc3cc2cc(c3O[C@@H]2O[C@H](CO)[C@@H](O)[C@H](O)[C@H]2O)Oc2ccc(cc2Cl)[C@H]1O (some centres not stated)"
  MIC: "6.25 µg/mL"

GET MIC | system: Enterococcus faecium | item: CN[C@H](CC(C)C)C(=O)N[C@H]1C(=O)N[C@@H](CC(N)=O)C(=O)N[C@H]2C(=O)NC3C(=O)NC(C(=O)N[C@@H](C(=O)O)c4cc(O)cc(O)c4-c4cc3ccc4O)[C@H](O[C@H]3C[C@](C)(NCc4ccc(-c5ccc(Cl)cc5)cc4)[C@@H](O)[C@H](C)O3)c3ccc(c(Cl)c3)Oc3cc2cc(c3O[C@@H]2O[C@H](CO)[C@@H](O)[C@H](O)[C@H]2O)Oc2ccc(cc2Cl)[C@H]1O (some centres not stated)
6.25 µg/mL

----------
Test system: Enterococcus faecium
Assay: Minimum Inhibitory Concentration against Enterococcus faecium SR-7917 (VRE) was determined
Type: functional
Value kind: MIC (µg/mL)
Dear colleague, please return just the value in µg/mL, with no unit written.

Given the compound CN[C@H](CC(C)C)C(=O)N[C@H]1C(=O)N[C@@H](CC(N)=O)C(=O)N[C@H]2C(=O)NC3C(=O)NC(C(=O)N[C@@H](C(=O)O)c4cc(O)cc(O)c4-c4cc3ccc4O)[C@H](O[C@H]3C[C@](C)(NCc4ccc(-c5ccc(-c6ccccc6)cc5)cc4)[C@@H](O)[C@H](C)O3)c3ccc(c(Cl)c3)Oc3cc2cc(c3O[C@@H]2O[C@H](CO)[C@@H](O)[C@H](O)[C@H]2O)Oc2ccc(cc2Cl)[C@H]1O (some centres undefined) , write its reported MIC.
3.13

Retrieve MIC measured for CCCCCCCCCCCCCN[C@@]1(C)C[C@H](O[C@@H]2c3ccc(c(Cl)c3)Oc3cc4cc(c3O[C@@H]3O[C@H](CO)[C@@H](O)[C@H](O)[C@H]3O)Oc3ccc(cc3Cl)[C@@H](O)[C@@H](NC(=O)[C@@H](CC(C)C)NC)C(=O)N[C@@H](CC(N)=O)C(=O)N[C@H]4C(=O)NC3C(=O)NC2C(=O)N[C@@H](C(=O)O)c2cc(O)cc(O)c2-c2cc3ccc2O)O[C@@H](C)[C@@H]1O (some centres undefined) and print it.
6.25
